B1: tRNA (parent)
chain: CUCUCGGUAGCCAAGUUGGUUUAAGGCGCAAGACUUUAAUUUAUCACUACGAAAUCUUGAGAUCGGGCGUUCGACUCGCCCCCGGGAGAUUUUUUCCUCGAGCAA

- Variants of: B1
- ASSAY PROTOCOL: nonsense suppression (GFP-seq) (ratio to wild type); higher = more function; SUP4oc tRNA, yeast GFP reporter sort-seq
Variants at the floor of the assay were thinned out.
Listed below: nonsense suppression values for each entry.
Returns: the value as a bare number; no unit string appended.

>  <RESIDUE STRING>
CUCUCGGUAGCCAAGUUGGUUUACGGCGCAAGACUUUAAUUUAUCACUACGAAAUCUUGAGAUCGGGCGUUCGACUCUCCCCCGGGAGAUUUUUUCCUCGAGCAA [A24C G78U]

>  <nonsense suppression>
0.0343

$$$$
>  <RESIDUE STRING>
CUCUCGGUAGCCAAGUUGGUUUAAGGCGCAAGACUUUAAUUUAUCACUACGAAAUCUUGAAAUCGGGCCUUCGACUCGCCCCCGGGAGAUUUUUUCCUCGAGCAA [G61A G69C]

>  <nonsense suppression>
0.0625

$$$$
>  <RESIDUE STRING>
CUCUCGGUAGCCGAGUUGGUGUAAGGCGCAAGACUUUAAUUUAUCACUACGAAAUCUUGAGAUCGGGCGUUCGACUCGCCCCCGGGAGAUUUUUUCCUCGAGCAA [A13G U21G]

>  <nonsense suppression>
0.026

$$$$

Now for another entry.
Input: Tell me its nonsense suppression given CUCUCGGUAGCCAAGUUGGUUUAAGGUGCAAGACUUUAAUUUAUCACUACGAAAUCUUGAGAUCGGGCGUUCGACUCGCCCCCGAGAGAUUUUUUCCUCGAGCAA [C27U G85A] as the entry.
Output: 0.207
